Conditions: in acetonitrile, 298.15 K
Readout Kind: solubility (mole fraction)
Give your answer as a number; write no unit.

Consider the molecule shown here: Cl.Cl.Fc1ccc(C(c2ccc(F)cc2)N2CCN(C/C=C/c3ccccc3)CC2)cc1 What is its recorded solubility (mole fraction)?
0.00275

====

Conditions: in ethyl acetate, 308.15 K
Readout Kind: solubility (mole fraction)
Give your answer as a number; write no unit.

Consider the molecule shown here: Cl.Cl.Fc1ccc(C(c2ccc(F)cc2)N2CCN(C/C=C/c3ccccc3)CC2)cc1 What is its recorded solubility (mole fraction)?
0.00285

====

Details: in isobutanol, 318.15 K
Readout Kind: solubility (mole fraction)
Give your answer as a number; write no unit.

Consider the molecule shown here: Cl.Cl.Fc1ccc(C(c2ccc(F)cc2)N2CCN(C/C=C/c3ccccc3)CC2)cc1 What is its recorded solubility (mole fraction)?
0.00573
